Test system: IL-6
method summary: IL-6 inhibition in LPS-stimulated THP-1 monocytes (HTRF)
Format: cell-based, human
test conditions: Homo sapiens; THP-1 cells, LPS stimulated; given only where EC50 >10 μM; top concentration 10 μM; read-out: percentage in parentheses beside EC50 >10 (IL-6 inhibition)
inhibition at 10 µM below 20% gives Criterion not met; inhibition at 10 µM at or above it gives Criterion met.

Observe how each entry below is paired with its result.
Fc1ccc(-c2cccc3[nH]c(-c4n[nH]c5ncc(-c6cncc(CN7CCCCC7)c6)cc45)cc23)cc1 [Compound 36] = Criterion met
c1ccc(-c2cccc3[nH]c(-c4n[nH]c5ncc(-c6cncnc6)cc45)cc23)nc1 [Compound 143] = Criterion met
O=C(Nc1cncc(-c2cnc3[nH]nc(-c4cc5c(-c6cccc(F)c6)cccc5[nH]4)c3c2)c1)C1CCCCC1 [Compound 19] = Criterion not met
O=C(Nc1cncc(-c2cnc3[nH]nc(-c4cc5c(-c6ccc(F)cc6)cccc5[nH]4)c3c2)c1)c1ccccc1 [Compound 32] = Criterion not met
CC(C)CC(=O)Nc1cncc(-c2cnc3[nH]nc(-c4cc5c(N6CCN(C)CC6)cccc5[nH]4)c3c2)c1 [Compound 202] = Criterion not met
Cc1ccncc1-c1cnc2[nH]nc(-c3cc4c(-c5ccc(F)cc5)cccc4[nH]3)c2c1 [Compound 27] = Criterion met

Read the next record carefully.
Query: Does the molecule O=C(Nc1cncc(-c2cnc3[nH]nc(-c4cc5ccccc5[nH]4)c3c2)c1)C1CCCCC1 [Compound 249] have recorded inhibition at 10 µM that is 20% or more?
Reply: Criterion not met

Cited source: patent US20180214428A1
